- test_system: Bifunctional 3'-5' exonuclease/ATP-dependent helicase WRN (Homo sapiens, UniProt Q14191)
- Sequence (Q14191 whole entry): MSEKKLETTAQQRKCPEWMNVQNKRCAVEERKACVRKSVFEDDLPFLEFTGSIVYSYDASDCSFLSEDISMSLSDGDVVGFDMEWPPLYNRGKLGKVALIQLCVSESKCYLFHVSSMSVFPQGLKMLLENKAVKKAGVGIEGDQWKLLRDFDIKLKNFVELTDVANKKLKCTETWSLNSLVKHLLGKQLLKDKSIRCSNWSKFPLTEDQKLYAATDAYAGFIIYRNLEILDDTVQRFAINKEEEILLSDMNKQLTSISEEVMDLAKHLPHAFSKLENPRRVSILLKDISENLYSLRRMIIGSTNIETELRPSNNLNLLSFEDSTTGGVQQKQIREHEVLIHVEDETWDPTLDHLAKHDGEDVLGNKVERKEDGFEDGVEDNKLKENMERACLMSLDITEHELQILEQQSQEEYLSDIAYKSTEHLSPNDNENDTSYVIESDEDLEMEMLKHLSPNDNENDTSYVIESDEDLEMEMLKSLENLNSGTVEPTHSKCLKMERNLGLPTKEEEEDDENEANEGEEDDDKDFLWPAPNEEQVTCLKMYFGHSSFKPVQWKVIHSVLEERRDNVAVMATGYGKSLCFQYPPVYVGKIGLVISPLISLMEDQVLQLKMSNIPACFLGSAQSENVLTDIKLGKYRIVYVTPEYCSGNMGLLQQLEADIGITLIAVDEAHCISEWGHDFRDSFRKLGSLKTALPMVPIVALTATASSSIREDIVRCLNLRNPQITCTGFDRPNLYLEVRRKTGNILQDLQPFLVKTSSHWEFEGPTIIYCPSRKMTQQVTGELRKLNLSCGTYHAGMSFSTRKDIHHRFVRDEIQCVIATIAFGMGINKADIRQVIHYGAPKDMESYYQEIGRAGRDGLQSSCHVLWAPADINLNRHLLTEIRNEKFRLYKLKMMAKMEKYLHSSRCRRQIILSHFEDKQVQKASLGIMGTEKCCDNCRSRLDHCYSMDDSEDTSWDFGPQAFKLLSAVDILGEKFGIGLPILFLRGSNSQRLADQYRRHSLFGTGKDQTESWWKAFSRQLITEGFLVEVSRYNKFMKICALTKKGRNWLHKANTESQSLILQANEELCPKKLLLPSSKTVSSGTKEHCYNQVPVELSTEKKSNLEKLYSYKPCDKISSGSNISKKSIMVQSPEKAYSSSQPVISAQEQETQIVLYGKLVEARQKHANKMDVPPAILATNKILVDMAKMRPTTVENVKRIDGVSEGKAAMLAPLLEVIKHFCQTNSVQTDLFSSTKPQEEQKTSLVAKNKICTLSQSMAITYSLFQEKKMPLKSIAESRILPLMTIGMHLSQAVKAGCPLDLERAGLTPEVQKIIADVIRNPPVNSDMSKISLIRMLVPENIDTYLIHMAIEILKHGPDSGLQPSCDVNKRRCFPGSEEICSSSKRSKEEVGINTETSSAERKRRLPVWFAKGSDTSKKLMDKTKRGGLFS
- method_summary: ADP-Glo Kinase Assay
- Method: ATPase activity was measured using the ADP-Glo Kinase Assay following the manufacturers recommended protocol.
outcome_measure: IC50 (nM)

Some compounds with known IC50 results, for comparison:
[
  {
    "compound": "CCc1c(N2CCN(C(=O)c3ncnc(C)c3O)CC2)c(=O)n2nc(-c3ccc4c(c3F)CCOC4)nc2n1CC(=O)Nc1ccc(C(F)(F)F)cc1Cl",
    "IC50, nM": 31
  },
  {
    "compound": "CCc1c(N2CCN(C(=O)c3ncnc(C)c3O)CC2)c(=O)n2nc(-c3cc(F)c4c(c3)CCO4)nc2n1CC(=O)Nc1ccc(C(F)(F)F)cc1Cl",
    "IC50, nM": 36
  },
  {
    "compound": "CCc1c(N2CCN(C(=O)c3ncnc(C)c3O)CC2)c(=O)n2nc(-c3cccc4c3COC4)nc2n1CC(=O)Nc1ccc(C(F)(F)F)cc1Cl",
    "IC50, nM": 40
  },
  {
    "compound": "CCc1c(N2CCN(C(=O)c3ncnc(C)c3O)CC2)c(=O)n2nc(-c3ccn4nccc4c3)nc2n1CC(=O)Nc1ccc(C(F)(F)F)cc1Cl",
    "IC50, nM": 95
  },
  {
    "compound": "CCc1c(N2CC[C@@H]3[C@@H]2CCCN3C(=O)c2ncnc(C)c2O)c(=O)n2nc(-c3ccc4c(c3)COC4)nc2n1CC(=O)Nc1ccc(C(F)(F)F)cc1Cl",
    "IC50, nM": 25
  },
  {
    "compound": "CCc1c(N2CCN(C(=O)C3CCOCC3)CC2)c(=O)n2nc(-c3ccnc(O)n3)nc2n1CC(=O)Nc1ccc(C(F)(F)F)cc1Cl",
    "IC50, nM": 29700
  },
  {
    "compound": "CCc1c(N2CCN(C(=O)c3ncnc(C)c3O)CC2)c(=O)n2nc(-c3cccc4c3COCC4)nc2n1CC(=O)Nc1ccc(C(F)(F)F)cc1Cl",
    "IC50, nM": 86.9
  },
  {
    "compound": "CCc1c(N2CCN(C(=O)c3ncnc(C)c3O)CC2)c(=O)n2nc(-c3ccc4c(c3)CCC4OC(F)F)nc2n1CC(=O)Nc1ccc(C(F)(F)F)cc1Cl (stereo not given)",
    "IC50, nM": 95
  },
  {
    "compound": "CCc1c(N2CCN(C(=O)c3ncnc(C)c3O)CC2)c(=O)n2nc(-c3cnc4cn(C)nc4c3)nc2n1CC(=O)Nc1ccc(C(F)(F)F)cc1Cl",
    "IC50, nM": 68
  },
  {
    "compound": "CCc1c(N2CCN(C(=O)c3ncnc(C)c3O)CC2)c(=O)n2nc(-c3ccc4c(c3)C[C@@H](OC)C4)nc2n1CC(=O)Nc1ccc(C(F)(F)F)cc1Cl",
    "IC50, nM": 37
  }
]

[A] CCc1c(N2CCN(C(=O)c3ncnc(C)c3O)CC2)c(=O)n2nc(-c3cccc4c3cnn4C)nc2n1CC(=O)Nc1ccc(C(F)(F)F)cc1Cl
[B] CCc1c(N2CCN(C(=O)c3ncnc(C)c3O)CC2)c(=O)n2nc(-c3cccc4c3OCO4)nc2n1CC(=O)Nc1ccc(SC(F)(F)F)cc1
[C] CCc1c(N2CCN(C(=O)c3ncnc(C)c3O)CC2)c(=O)n2nc(-c3ccc4c(c3)C(C)(C)OC4(C)C)nc2n1CC(=O)Nc1ccc(C(F)(F)F)cc1Cl
Order the items by recorded IC50; the first position goes to the largest value. List each label, following the requested order. B, C, A

Reference for the values: BindingDB's records for patent WO2025049746
